target: T1, human neuropeptide Y2 receptor (human, UniProt P49146 1-381)
T1 sequence (looked up): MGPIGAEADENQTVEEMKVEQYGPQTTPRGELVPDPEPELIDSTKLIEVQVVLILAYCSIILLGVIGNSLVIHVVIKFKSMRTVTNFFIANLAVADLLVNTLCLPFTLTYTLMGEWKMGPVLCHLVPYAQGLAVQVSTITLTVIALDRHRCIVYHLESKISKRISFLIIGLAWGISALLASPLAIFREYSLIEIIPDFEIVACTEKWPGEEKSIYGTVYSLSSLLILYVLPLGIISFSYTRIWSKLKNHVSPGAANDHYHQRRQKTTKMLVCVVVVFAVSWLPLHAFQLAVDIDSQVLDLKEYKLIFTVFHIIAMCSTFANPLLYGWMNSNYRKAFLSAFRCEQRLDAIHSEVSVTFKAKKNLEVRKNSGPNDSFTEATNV
protocol: cell-based or functional assay
Starred links: 1 amine or outer side, 2 acyl side, 3 side chain; linkers in the order of their positions; H or OH if unused. Non-standard residues stand in square brackets, D forms with d. Groups on a side chain read outwards from the residue. No end group written: not given here. *: point of attachment. C20 diacid = O=C(O)CCCCCCCCCCCCCCCCCCC(=O)*; C18 diacid = O=C(O)CCCCCCCCCCCCCCCCC(=O)*; γGlu = O=C(O)[C@H](CCC(=O)[*:2])N[*:1]; Aib = CC(C)(N)C(=O)O
Recorded EC50 hNPY2R 100% hP (CreLuc) for the following binders

>  <binder>
Y[Aib]EGTFTSDYSI[Aib]LEKQAQ[Aib]AFVEWLIK([γGlu-γGlu-γGlu-γGlu-γGlu-γGlu-C20 diacid])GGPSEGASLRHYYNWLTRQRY-NH2 (also: TFA salt) [Compound 305]

>  <EC50 hNPY2R 100% hP (CreLuc) (nM)>
101

$$$$
>  <binder>
Y[Aib]EGTFTSDYSI[Aib]LEKQAQ[Aib]AFVQWLIK([Glu-Glu-Glu-Glu-C18 diacid])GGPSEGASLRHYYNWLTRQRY-NH2 (also: TFA salt) [Compound 281]

>  <EC50 hNPY2R 100% hP (CreLuc) (nM)>
169

$$$$
